Source: patent US7473692B2

Molecular target: rat recombinant D3 receptors expressed in Sf9 cells (Rattus norvegicus)
Construct: purchased Research Biochemical International D-181; host or cells: Sf9 cells
Sequence (P19020 whole entry): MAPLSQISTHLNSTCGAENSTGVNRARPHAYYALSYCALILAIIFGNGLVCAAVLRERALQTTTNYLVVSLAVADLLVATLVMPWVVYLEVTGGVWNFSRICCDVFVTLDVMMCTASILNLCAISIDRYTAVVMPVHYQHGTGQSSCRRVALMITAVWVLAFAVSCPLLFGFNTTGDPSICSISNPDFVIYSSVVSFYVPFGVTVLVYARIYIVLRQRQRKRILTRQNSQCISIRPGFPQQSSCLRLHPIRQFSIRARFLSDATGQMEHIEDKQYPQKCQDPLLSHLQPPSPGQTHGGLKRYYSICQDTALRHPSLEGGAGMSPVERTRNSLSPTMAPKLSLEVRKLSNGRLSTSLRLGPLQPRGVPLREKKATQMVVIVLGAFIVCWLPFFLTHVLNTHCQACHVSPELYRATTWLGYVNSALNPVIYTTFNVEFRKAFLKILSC
Experiment: D3 receptor binding ([3H]-spiperone)
Details: [3H]-spiperone 0.4 nM; non-specific binding with haloperidol 10 μM
quantityName: IC50 (nM)

> print(dat)
                               samplesmiles  endpointvalue
1  COc1cc(-c2ccccc2)ccc1N1CCN(CC[C@H]2CC[C@H](NS(=O)(=O)N(C)C)CC2)CC1            4.3
2  CCCCS(=O)(=O)N[C@H]1CC[C@H](CCN2CCC(Nc3cccc(C(F)(F)F)c3)CC2)CC1            2.5
3  CCCCS(=O)(=O)N[C@H]1CC[C@H](CCN2CCN(c3ccc(-c4ccccc4)cc3OC)CC2)CC1            5.5
4  N#Cc1cc(N2CCN(CC[C@H]3CC[C@H](NS(=O)(=O)c4ccc(Cl)cc4)CC3)CC2)cc(C(F)(F)F)c1              2

1. O=S(=O)(N[C@H]1CC[C@H](CCN2CCC(Oc3cccc(C(F)(F)F)c3)CC2)CC1)c1cccnc1
2. N#Cc1cc(N2CCN(CC[C@H]3CC[C@H](NS(=O)(=O)c4ccc(Cl)s4)CC3)CC2)cc(C(F)(F)F)c1
3. O=S(=O)(CCCN1CCOCC1)N[C@H]1CC[C@H](CCN2CCN(c3cccc(C(F)(F)F)c3)CC2)CC1
# input Highest IC50 first, then in falling order down to the smallest. Your answer should be the labels, listed in the requested order.
# output 2, 1, 3
